- ASSAY TARGET: human immuno proteasome (LMP7) (Homo sapiens (Human), UniProt P28062)
- TEST NAME: Determination of LMP7 activity (fluorescence intensity assay, Suc-LLVY-AMC)
- Assay type: biochemical
- STUDY CONDITIONS: incubation for 20 minutes
Listed here: items and their measured IC50.

Please review the following examples before continuing.
SMILES TEXT: C=CC(=O)N(CC(=O)N[C@@H](Cc1ccc(C)cc1C)B(O)O)C(C)C
IC50: 50 to 500 nM
//
SMILES TEXT: C=CC(=O)N(c1ccccc1)[C@@H](C)C(=O)N[C@@H](Cc1ccc(C)cc1C)B(O)O
IC50: 500 to 5000 nM
//
SMILES TEXT: C=CC(=O)N(CC)CC(=O)N[C@@H](Cc1ccccc1)B(O)O
IC50: 50 to 500 nM

// moving on: another record for IC50
// query Please look at this compound and report its IC50: `C=CC(=O)N(CC)CC(=O)N[C@@H](Cc1coc2ccccc12)B(O)O`
// result < 50 nM
